assay: inhibitors of hydroxyurea-induced Chk1 phosphorylation, primary screen, imaging, HeLa, phospho-Chk1 nuclear intensity (AID 1187); conditions: hydroxyurea-induced phospho-Chk1 immunofluorescence imaging, higher = more signal; also: test concentration not given here
measured-quantity: z-score
Give the value as a plain number.

Below are worked cases with known answers.
{"columns": ["molecule", "z-score"],
 "data": [
  ["CC(=O)NCCCC[C@@H]1NC(=O)[C@@H]2C[C@H](C(=O)O)[C@H](c3cccc(OCCO)c3)N2C1=O", 0.165],
  ["CC(C)C[C@@H]1NC(=O)[C@@]23C(=O)N[C@@H](Cc4ccccc4)C2[C@H](C)[C@@]2(C)O[C@H]2C3/C=C/C/C=C\\CNC(=O)[C@H](Cc2ccccc2)NC1=O (some centres not stated)", 0.356],
  ["COc1ccc([Si](C)(C)[C@@H]2[C@@H](CCn3cc(CCO)nn3)O[C@]3(C(=O)N(Cc4ccc(N5C(=O)c6cccc7cccc5c67)cc4)c4ccccc43)[C@H]2C)cc1", -0.956],
  ["CCOC(=O)C[C@H]1[C@H](OC(=O)c2cc3ccccc3oc2=O)[C@@H](NC(=O)c2ccccc2)c2cc(OCCCO)ccc2N1C(=O)Cc1ccc(OC)cc1", -0.0607],
  ["CC(C)(C)OC(=O)CC[C@]1(C(=O)NCc2ccccc2)COC(c2ccc(OCCCO)cc2)=N1", 0.166]
]}

input: Let me know recorded z-score for Cc1ccc(N2C(=O)c3ccccc3[C@](C)(C(=O)NC3CC3)[C@@H]2c2ccc(CO)cc2)nc1 , thanks.
output: 0.24

input: Let me know recorded z-score for CC(C)(C)OC(=O)CC[C@@]1(C(=O)NCc2ccccc2)N=C(c2ccc(OCCCO)cc2)O[C@@H]1c1ccccc1CN=[N+]=[N-] , thanks.
output: -0.84

----------
assay: basal S. cerevisiae growth modulation, no modifier, primary screen, OD600, strain BY4716, 24 h, basal condition (AID 1173); settings: OD600, 24 h, higher = more signal, called active from +8 up or from −8 down
Calls of active or inactive are those of the source.
measured-quantity: z-score

{"columns": ["compound", "value-observed"],
 "data": [
  ["C/C=C/[C@@H](CCn1cc(CCO[Si](C(C)C)(C(C)C)C(C)C)nn1)[Si](C)(C)c1ccc(OC)cc1", "-2.21 (inactive)"],
  ["CC(=O)OC(C/C=C\\B1OC(C)(C)C(C)(C)O1)c1ccccc1 (configuration not stated)", "-2.1 (inactive)"],
  ["CC(C)CNC(=O)[C@@H]1c2ccccc2C(=O)N(Cc2ccc(OC(F)(F)F)cc2)[C@H]1c1ccc(CO)cc1", "-1.78 (inactive)"],
  ["C=C(CCCC)/C(=C/C[C@H](OC(=O)c1ccncc1)c1ccc(CO)o1)c1cnc2ccccc2c1", "-1.7 (inactive)"],
  ["C=CC[C@@]1(C(=O)NCc2ccccc2)N=C(c2ccc(OCCCO)cc2)O[C@@H]1c1ccccc1", "-2.16 (inactive)"],
  ["CCN(CC)c1ccc(N2CC=CC34O[C@@H]5C=CCOC(=O)[C@@H]5[C@H]3C(=O)N(C(C)CO)[C@@H]4C2=O)cc1 (some centres not stated)", "-0.746 (inactive)"]
]}

input: Let me know recorded z-score for O=C(O)[C@H]1C[C@H]2C(=O)NCC(=O)N2[C@H]1c1cccc(OCCO)c1 , thanks.
output: -1.62 (inactive)

input: Let me know recorded z-score for CCCC[C@@H](O)C1=C(C)C[C@H]2C(=O)N(C)C(=O)[C@H]2[C@H]1CO , thanks.
output: -3.48 (inactive)

input: Let me know recorded z-score for C=C(COC)/C(=C/C[C@H](OC(C)=O)c1ccc(CO)o1)c1cnc2ccccc2c1 , thanks.
output: -1.24 (inactive)

input: Let me know recorded z-score for CC(C)C(=C=CC[C@H](O)c1ccc(OCCO)cc1)C[C@H](O)COCc1ccccc1 , thanks.
output: -3.15 (inactive)

input: Let me know recorded z-score for Cc1ccc(S[C@]2(C(=O)NCCN3CCOCC3)CC(=O)N(Cc3cc(C(F)(F)F)cc(C(F)(F)F)c3)[C@@H]2c2ccc(CO)cc2)cc1 , thanks.
output: -1.76 (inactive)
